- assayed-system: DLL3 endogenously expressed on NCI-H82 cells (UniProt Q9NYJ7)
- Sequence (Q9NYJ7 27-618): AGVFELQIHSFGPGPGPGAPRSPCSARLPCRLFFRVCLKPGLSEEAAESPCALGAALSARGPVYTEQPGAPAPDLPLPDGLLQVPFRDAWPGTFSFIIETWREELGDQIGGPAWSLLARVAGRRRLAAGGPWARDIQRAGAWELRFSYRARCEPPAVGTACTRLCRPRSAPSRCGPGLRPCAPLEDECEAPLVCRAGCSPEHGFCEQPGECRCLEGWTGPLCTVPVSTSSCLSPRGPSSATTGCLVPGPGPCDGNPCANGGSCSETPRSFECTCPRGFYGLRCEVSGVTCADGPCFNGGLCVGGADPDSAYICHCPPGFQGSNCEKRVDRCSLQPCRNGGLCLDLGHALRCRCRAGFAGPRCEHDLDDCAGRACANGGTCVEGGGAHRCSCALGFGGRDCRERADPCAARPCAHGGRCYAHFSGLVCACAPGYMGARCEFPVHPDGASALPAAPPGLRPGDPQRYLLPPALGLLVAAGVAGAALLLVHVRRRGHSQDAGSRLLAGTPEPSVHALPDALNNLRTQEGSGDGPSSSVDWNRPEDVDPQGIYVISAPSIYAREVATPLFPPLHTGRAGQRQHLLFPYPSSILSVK
- protocol-notes: FACS on NCI-H82 cells; antibody 100 nM

binder | MFI
Hab009VL1aVH1-hFc (Fc fusion, part only; not given: Linker and human IgG1 Fc, not shown: a dimerising Fc or GST) chain, part: DIVMTQSPLSLPVTPGEPASISCRASQTISDYLHWYLQKPGQSPQLLIKYASQSISGVPDRFSGSGSGSDFTLKISRVEAEDVGVYYCQQGHSFPLTFGQGTKLEIKEVQLVQSGAEVKKPGASVKVSCKASGYTFTSYWMHWVRQAPGQRLEWMGTIYPGNSDTRYNQKFKDRVTITADTSASTAYMELSSLRSEDTAVYYCTRSYDYGDLDYWGQGTTVTVSS | 888
Hab006VL1VH4-hFc (scFv, part only; not given: VL-VH linker and human IgG1 Fc, V domains shown, not shown: another chain or arm of the molecule; a dimerising Fc or GST; small tags and cut ends) VL: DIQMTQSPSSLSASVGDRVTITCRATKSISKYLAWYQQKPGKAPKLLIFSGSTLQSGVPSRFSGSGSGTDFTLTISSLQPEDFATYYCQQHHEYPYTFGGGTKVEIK VH: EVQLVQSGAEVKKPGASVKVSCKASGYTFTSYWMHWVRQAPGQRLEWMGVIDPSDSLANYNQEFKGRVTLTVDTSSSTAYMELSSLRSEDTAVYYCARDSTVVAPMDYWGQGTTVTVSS | 626
Hab009VL3aVH1-hFc (scFv, part only; not given: VL-VH linker and human IgG1 Fc, V domains shown, not shown: another chain or arm of the molecule; a dimerising Fc or GST; small tags and cut ends) VL: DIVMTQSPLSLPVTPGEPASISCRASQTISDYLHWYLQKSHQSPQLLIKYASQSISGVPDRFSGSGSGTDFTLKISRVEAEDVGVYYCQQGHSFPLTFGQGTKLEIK VH: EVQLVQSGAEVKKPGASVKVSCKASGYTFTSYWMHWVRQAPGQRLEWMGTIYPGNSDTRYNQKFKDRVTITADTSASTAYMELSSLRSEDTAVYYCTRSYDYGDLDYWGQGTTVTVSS | 872
